# Read-out: solute carrier (SLC22A1), SLC22A1 (gene 6580)
# test.details: LTEA_HepaRG_SLC22A1: Life Technologies and Expression Analysis (LTEA) Assay for solute carrier (SLC22A1) using HepaRG (AID 2283524)
# condition: mRNA level, 48 h; actives raise or lower the signal
Active and inactive are the calls of the source. How the source made its calls: active means hit-call score of the fitted dose curve at least 0.9, where 1 is the maximum; inactive means score below 0.9.
Permitted responses: 1 (yes) = active, 0 (no) = inactive

Which result was noted for this compound in the test: COc1cc(S(=O)(=O)O)c(C)cc1N=Nc1c(O)ccc2cc(S(=O)(=O)O)ccc12
0 (no)

Which result was noted for this compound in the test: Oc1ccc2c(c1)OC[C@@H](N1CCC(O)(c3ccc(F)cc3)CC1)[C@H]2O
0 (no)

Which result was noted for this compound in the test: c1cc(-c2ccncc2)ccn1
0 (no)

Which result was noted for this compound in the test: CCNc1cccc(C)c1
0 (no)

Which result was noted for this compound in the test: COc1ccc(S(=O)(=O)N2C(=O)[C@@](c3ccccc3OC)(N3C[C@H](O)C[C@H]3C(=O)N(C)C)c3cc(Cl)ccc32)c(OC)c1
1 (yes)

Which result was noted for this compound in the test: Cc1ccc(C(C)C)c(O)c1
0 (no)

Which result was noted for this compound in the test: CCc1c(C(=O)NN2CCCCC2)nn(-c2ccc(Cl)cc2Cl)c1-c1ccc(Br)cc1
1 (yes)

Which result was noted for this compound in the test: NCCO
0 (no)

Which result was noted for this compound in the test: CCOC(=O)CCC(=O)OCC
0 (no)

Which result was noted for this compound in the test: CCOC(=O)C(C)(C)Oc1ccc(Cl)cc1
0 (no)

Which result was noted for this compound in the test: NS(=O)(=O)c1cc2c(cc1Cl)NCNS2(=O)=O
0 (no)

Which result was noted for this compound in the test: Cc1cc(NC(=O)C(=O)O)cc(C)c1Oc1ccc(O)c2c1CCC2
1 (yes)

----------
# Read-out: Interleukin-6 (IL6), IL6 (gene 3569)
# test.details: BSK_CASM3C_IL6: BioMAP Diversity Plus: CASM3C Assay for Interleukin-6 (IL6) Biomarker Activity for (AID 2283040)
# condition: primary human coronary artery smooth muscle cells; actives raise or lower the signal
Calls of active or inactive are those of the source. How the source made its calls: active means hit-call score of the fitted dose curve at least 0.9, where 1 is the maximum; inactive means score below 0.9.
recorded.metric: outcome

COc1ccc(S(=O)(=O)N2C(=O)[C@@](c3ccccc3OC)(N3C[C@H](O)C[C@H]3C(=O)N(C)C)c3cc(Cl)ccc32)c(OC)c1 :: inactive
Clc1cc(Cl)c(Cl)cc1Cl :: inactive
CC(CO)OC(C)CO (stereo not drawn) (tested in a mixture with another compound) :: inactive

----------
# Read-out: Matrix Metallopeptidase 1 (MMP1), MMP1 (gene 4312)
# test.details: BSK_hDFCGF_MMP1: BioMAP Diversity Plus: hDFCGF Assay for Matrix Metallopeptidase 1 (MMP1) Biomarker Activity (AID 2283064)
# condition: primary human foreskin fibroblasts; actives raise or lower the signal
Active and inactive are the calls of the source. How the source made its calls: active means hit-call score of the fitted dose curve at least 0.9, where 1 is the maximum; inactive means score below 0.9.
Permitted responses: class 1 (active), class 0 (inactive)

Which result was noted for this compound in the test: CCCCCCCCCCCCCCCC
class 0

Which result was noted for this compound in the test: CCCCCCCCCCCC(=O)OC
class 0

Which result was noted for this compound in the test: C[Si]1(C)O[Si](C)(C)O[Si](C)(C)O[Si](C)(C)O1
class 0

Which result was noted for this compound in the test: CC(CO)OC(C)CO (stereo unspecified) (tested in a mixture with another compound)
class 0

Which result was noted for this compound in the test: CC(=O)Oc1ccccc1C(=O)O
class 0

Which result was noted for this compound in the test: COc1ccc(C)cc1N
class 0

Which result was noted for this compound in the test: CCOC(=O)C(C)(C)Oc1ccc(Cl)cc1
class 0

Which result was noted for this compound in the test: CN[C@H]1CC[C@@H](c2ccc(Cl)c(Cl)c2)c2ccc(S(N)(=O)=O)cc21
class 1

Which result was noted for this compound in the test: Cc1ccc(Cl)cc1
class 0

Which result was noted for this compound in the test: CC=Cc1ccc(O)c(OC)c1
class 0

Which result was noted for this compound in the test: COc1cc(C=O)ccc1O
class 0

----------
# Read-out: Broad substrate specificity ATP-binding cassette transporter ABCG2 (Homo sapiens)
# test.details: LTEA_HepaRG_ABCG2: Life Technologies and Expression Analysis (LTEA) Assay for ABC Transporter (ABCG2) using HepaRG (AID 2283465)
# condition: mRNA level, 48 h; actives raise or lower the signal
The source made the active and inactive calls. Rule for the calls: active = hit-call score of the fitted dose curve at least 0.9, where 1 is the maximum; inactive = score below 0.9.
Permitted responses: YES for active, NO for inactive

Which result was noted for this compound in the test: O=C(N[C@@H](Cc1ccccc1)[C@@H](O)C(=O)N1C[C@@H](O)[C@@H](O)C1)c1cc2cc(Cl)ccc2[nH]1
YES

Which result was noted for this compound in the test: CCCCCCCCCCCC(=O)OC
NO

Which result was noted for this compound in the test: Oc1ccc2c(c1)OC[C@@H](N1CCC(O)(c3ccc(F)cc3)CC1)[C@H]2O
NO

Which result was noted for this compound in the test: Cc1ccc(C)c(C)c1
NO

Which result was noted for this compound in the test: CCOc1ccc2c(c1)C(C)=CC(C)(C)N2
YES

Which result was noted for this compound in the test: CNCc1cc(F)ccc1Oc1ccc(Cl)c(Cl)c1
NO

----------
# Read-out: Monokine induced gamma interferon (MIG), CXCL9 (gene 4283)
# test.details: BSK_SAg_MIG: BioMAP Diversity Plus: SAg Assay for Monokine induced gamma interferon (MIG) Biomarker Activity (AID 2283092)
# condition: primary human HUVEC with PBMC; actives raise or lower the signal
The source made the active and inactive calls. Rule for the calls: active = hit-call score of the fitted dose curve at least 0.9, where 1 is the maximum; inactive = score below 0.9.
Permitted responses: active, inactive

Which result was noted for this compound in the test: CC(C)(C)c1cc(O)c(C(C)(C)C)cc1O
inactive

Which result was noted for this compound in the test: CCCCCCOCCO
inactive

Which result was noted for this compound in the test: CC(=O)OCCOCCOCCOC(C)=O
inactive

Which result was noted for this compound in the test: C[C@]12C=CC(=O)C=C1CC[C@@H]1[C@@H]2C(=O)C[C@@]2(C)[C@H]1CC[C@]2(O)C(=O)CO
inactive

Which result was noted for this compound in the test: CCCCCCCCCCO
inactive

Which result was noted for this compound in the test: O=C(O)CCCCC(=O)O
inactive

Which result was noted for this compound in the test: CCCCN(CCCC)CCCC
inactive

Which result was noted for this compound in the test: Cc1nc(-c2ccc3c(c2)CCN(CCC2CCC(NC(=O)/C=C/c4ccc(F)cc4)CC2)CC3)no1 (configuration not stated)
inactive

Which result was noted for this compound in the test: Cc1c(C(=O)O)c(O)cc2c1C(=O)c1c(O)c([C@@H]3O[C@H](CO)[C@@H](O)[C@H](O)[C@H]3O)c(O)c(O)c1C2=O
inactive

Which result was noted for this compound in the test: Cc1nc(C)nc(N2C[C@@H](C)N(c3ccnc([C@@H](C)O)n3)[C@@H](C)C2)n1
inactive

Which result was noted for this compound in the test: CCCCC(CC)COC(=O)CC(C(=O)OCC(CC)CCCC)S(=O)(=O)O (configuration not stated)
active

Which result was noted for this compound in the test: CCCCCC(=O)O
inactive

----------
# Read-out: Low-density lipoprotein receptor (LDLR), LDLR (gene 3949)
# test.details: BSK_CASM3C_LDLR: BioMAP Diversity Plus: CASM3C Assay for Low-density lipoprotein receptor (LDLR) Biomarker Activity (AID 2283045);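 further: LDLR protein level on the cell surface quantified by ELISA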
# condition: primary human coronary artery smooth muscle cells; actives raise or lower the signal
The source made the active and inactive calls. Rule for the calls: active = hit-call score of the fitted dose curve at least 0.9, where 1 is the maximum; inactive = score below 0.9.
Permitted responses: 1 (active), 0 (inactive)

Which result was noted for this compound in the test: CCNc1cccc(C)c1
0

Which result was noted for this compound in the test: COc1cc(C=O)ccc1O
0

Which result was noted for this compound in the test: Cc1ccccc1Cl
0

Which result was noted for this compound in the test: CN1CCCC1=O
0

Which result was noted for this compound in the test: CCCCOC(=O)CCCCCCCCC(=O)OCCCC
0

Which result was noted for this compound in the test: COc1ccc(C)cc1N
0

Which result was noted for this compound in the test: CCCCCCC(=O)OCC
0

Which result was noted for this compound in the test: NC(=O)Cn1c(=O)cc(CCN2CCN(c3nccc4sccc34)CC2)c2ccc(F)cc21
1

Which result was noted for this compound in the test: O=C(O)CCCCC(=O)O
0

Which result was noted for this compound in the test: C=CCOC(=O)c1ccccc1C(=O)OCC=C
0

Which result was noted for this compound in the test: Cc1cc(=O)[nH]c(=S)[nH]1
0

Which result was noted for this compound in the test: CC(=O)C(C)=CC1C(C)=CCCC1(C)C (stereo not given)
0

Which result was noted for this compound in the test: CCCCCCCCCCCCCCCCCC(=O)O
0

Which result was noted for this compound in the test: Nc1ccccc1N
0

Which result was noted for this compound in the test: O=c1[nH]cc(F)c(=O)[nH]1
0

Which result was noted for this compound in the test: CCOC(=O)C(C)(C)Oc1ccc(Cl)cc1
0

Which result was noted for this compound in the test: CCCCc1ccc2c(n1)[C@@H](c1ccc(OC)cc1C[C@H](C)C(=O)O)[C@H](C(=O)O)[C@H]2c1ccc2c(c1)OCO2
0

Which result was noted for this compound in the test: CCc1c(C(=O)NN2CCCCC2)nn(-c2ccc(Cl)cc2Cl)c1-c1ccc(Br)cc1
0

Which result was noted for this compound in the test: CCCc1cc(=O)[nH]c(=S)[nH]1
0

Which result was noted for this compound in the test: CCCCCCCCCCCCCCCC
0

Which result was noted for this compound in the test: Cc1ccc(C(C)C)c(O)c1
0

Which result was noted for this compound in the test: Cc1cc(NC(=O)C(=O)O)cc(C)c1Oc1ccc(O)c2c1CCC2
0

Which result was noted for this compound in the test: COCCOCCOC
0

Which result was noted for this compound in the test: CC1(C)CC(N=C=O)CC(C)(CN=C=O)C1 (stereo not given)
1

Which result was noted for this compound in the test: CNCc1cc(F)ccc1Oc1ccc(Cl)c(Cl)c1
1

Which result was noted for this compound in the test: CCOc1ccc2c(c1)C(C)=CC(C)(C)N2
0

Which result was noted for this compound in the test: O=[N+]([O-])C(CO)(CO)CO
0

Which result was noted for this compound in the test: CCCCCC(=O)O
0

Which result was noted for this compound in the test: NCC1(Cc2noc(=O)[nH]2)CCCCC1
0

Which result was noted for this compound in the test: CC=Cc1ccc(O)c(OC)c1
0
